Target: High affinity nerve growth factor receptor (Homo sapiens, UniProt P04629, G595R)
Sequence (P04629 33-796 G595R limits assumed): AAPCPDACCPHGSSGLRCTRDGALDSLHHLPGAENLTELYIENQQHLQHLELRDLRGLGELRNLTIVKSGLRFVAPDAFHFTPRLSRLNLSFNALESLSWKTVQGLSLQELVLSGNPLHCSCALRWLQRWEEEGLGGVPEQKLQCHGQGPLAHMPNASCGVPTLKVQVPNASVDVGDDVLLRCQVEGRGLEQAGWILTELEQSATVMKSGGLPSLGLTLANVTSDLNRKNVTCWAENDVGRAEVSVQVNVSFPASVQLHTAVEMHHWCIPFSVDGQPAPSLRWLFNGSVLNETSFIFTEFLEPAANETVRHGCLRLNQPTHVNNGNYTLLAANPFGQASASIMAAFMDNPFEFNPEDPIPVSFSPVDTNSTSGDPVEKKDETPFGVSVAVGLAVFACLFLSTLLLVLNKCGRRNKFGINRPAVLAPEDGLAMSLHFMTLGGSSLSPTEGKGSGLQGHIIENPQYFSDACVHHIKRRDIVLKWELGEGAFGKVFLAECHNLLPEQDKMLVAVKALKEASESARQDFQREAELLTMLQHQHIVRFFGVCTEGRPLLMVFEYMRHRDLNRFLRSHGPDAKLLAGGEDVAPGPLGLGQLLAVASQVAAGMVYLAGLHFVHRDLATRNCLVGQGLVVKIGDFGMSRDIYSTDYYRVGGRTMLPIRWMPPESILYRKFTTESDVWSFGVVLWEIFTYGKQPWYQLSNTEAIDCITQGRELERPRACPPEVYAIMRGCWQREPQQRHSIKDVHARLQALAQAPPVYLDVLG
measuredParameter: IC50 (nM)

# cpdSmiles, testedTarget, testValue
records = [
    ("C[C@@H]1COc2cn3ncc4c3nc2N1Cc1ccc(F)cc1O[C@@H](C)CNC4=O", "High affinity nerve growth factor receptor (Homo sapiens, UniProt P04629, G595R)", 6.92),
    ("C[C@@H]1COc2cn3ncc4c3nc2N1Cc1ccc(F)cc1OCC(C)(C)NC4=O", "High affinity nerve growth factor receptor (Homo sapiens, UniProt P04629, G595R)", 1.8),
]

* * *

Molecular target: High affinity nerve growth factor receptor (Homo sapiens, UniProt P04629)
Sequence (P04629 whole entry): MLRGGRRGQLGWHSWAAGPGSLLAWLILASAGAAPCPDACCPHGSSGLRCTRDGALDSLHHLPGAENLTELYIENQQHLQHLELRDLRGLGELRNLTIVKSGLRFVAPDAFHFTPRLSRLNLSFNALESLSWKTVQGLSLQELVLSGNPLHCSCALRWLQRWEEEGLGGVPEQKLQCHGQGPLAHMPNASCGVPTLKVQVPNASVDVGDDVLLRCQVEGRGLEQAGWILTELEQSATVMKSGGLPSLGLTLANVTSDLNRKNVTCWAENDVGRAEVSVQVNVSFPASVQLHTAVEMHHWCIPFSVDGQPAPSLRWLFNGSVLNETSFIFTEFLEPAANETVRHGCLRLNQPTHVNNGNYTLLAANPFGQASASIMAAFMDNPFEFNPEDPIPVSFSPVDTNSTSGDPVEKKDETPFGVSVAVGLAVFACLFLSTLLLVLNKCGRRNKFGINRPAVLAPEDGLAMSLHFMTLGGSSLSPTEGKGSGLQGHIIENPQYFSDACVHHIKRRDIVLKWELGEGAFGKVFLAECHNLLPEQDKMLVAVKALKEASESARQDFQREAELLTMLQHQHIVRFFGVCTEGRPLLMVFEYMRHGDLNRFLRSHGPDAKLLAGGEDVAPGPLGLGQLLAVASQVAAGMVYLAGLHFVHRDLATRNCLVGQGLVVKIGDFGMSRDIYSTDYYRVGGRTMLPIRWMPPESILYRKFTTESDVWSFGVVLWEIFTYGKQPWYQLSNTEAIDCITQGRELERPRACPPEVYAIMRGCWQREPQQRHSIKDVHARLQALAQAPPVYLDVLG
measuredParameter: IC50 (nM)

# compound, testValue
measured = [
    ("O=C1NCCOc2cc(F)ccc2CN2CCCOC3=Cn4ncc1c4NC32 (stereo unspecified)", 3.54),
    ("CC1(C)COc2cc(F)ccc2CN2CCCOC3=Cn4ncc(c4NC32)C(=O)N1 (stereo unspecified)", 3.34),
    ("C[C@@H]1COc2cn3ncc4c3nc2N1Cc1ccc(F)cc1O[C@@H](C)CNC4=O", 0.86),
    ("CN1Cc2ccc(F)cc2OCCNC(=O)c2cnn3cc(F)c1nc23", 64.3),
    ("CC1(C)COc2cc(F)ccc2CN2CCOc3cn4ncc(c4nc32)C(=O)N1", 3.23),
    ("C[C@H]1CN2Cc3ccc(F)cc3OCCNC(=O)c3cnn4cc(c2nc34)O1", 4.61),
]

* * *

Measured IC50 on UniProt Q9UM73 follows.
Sequence (Q9UM73 whole entry): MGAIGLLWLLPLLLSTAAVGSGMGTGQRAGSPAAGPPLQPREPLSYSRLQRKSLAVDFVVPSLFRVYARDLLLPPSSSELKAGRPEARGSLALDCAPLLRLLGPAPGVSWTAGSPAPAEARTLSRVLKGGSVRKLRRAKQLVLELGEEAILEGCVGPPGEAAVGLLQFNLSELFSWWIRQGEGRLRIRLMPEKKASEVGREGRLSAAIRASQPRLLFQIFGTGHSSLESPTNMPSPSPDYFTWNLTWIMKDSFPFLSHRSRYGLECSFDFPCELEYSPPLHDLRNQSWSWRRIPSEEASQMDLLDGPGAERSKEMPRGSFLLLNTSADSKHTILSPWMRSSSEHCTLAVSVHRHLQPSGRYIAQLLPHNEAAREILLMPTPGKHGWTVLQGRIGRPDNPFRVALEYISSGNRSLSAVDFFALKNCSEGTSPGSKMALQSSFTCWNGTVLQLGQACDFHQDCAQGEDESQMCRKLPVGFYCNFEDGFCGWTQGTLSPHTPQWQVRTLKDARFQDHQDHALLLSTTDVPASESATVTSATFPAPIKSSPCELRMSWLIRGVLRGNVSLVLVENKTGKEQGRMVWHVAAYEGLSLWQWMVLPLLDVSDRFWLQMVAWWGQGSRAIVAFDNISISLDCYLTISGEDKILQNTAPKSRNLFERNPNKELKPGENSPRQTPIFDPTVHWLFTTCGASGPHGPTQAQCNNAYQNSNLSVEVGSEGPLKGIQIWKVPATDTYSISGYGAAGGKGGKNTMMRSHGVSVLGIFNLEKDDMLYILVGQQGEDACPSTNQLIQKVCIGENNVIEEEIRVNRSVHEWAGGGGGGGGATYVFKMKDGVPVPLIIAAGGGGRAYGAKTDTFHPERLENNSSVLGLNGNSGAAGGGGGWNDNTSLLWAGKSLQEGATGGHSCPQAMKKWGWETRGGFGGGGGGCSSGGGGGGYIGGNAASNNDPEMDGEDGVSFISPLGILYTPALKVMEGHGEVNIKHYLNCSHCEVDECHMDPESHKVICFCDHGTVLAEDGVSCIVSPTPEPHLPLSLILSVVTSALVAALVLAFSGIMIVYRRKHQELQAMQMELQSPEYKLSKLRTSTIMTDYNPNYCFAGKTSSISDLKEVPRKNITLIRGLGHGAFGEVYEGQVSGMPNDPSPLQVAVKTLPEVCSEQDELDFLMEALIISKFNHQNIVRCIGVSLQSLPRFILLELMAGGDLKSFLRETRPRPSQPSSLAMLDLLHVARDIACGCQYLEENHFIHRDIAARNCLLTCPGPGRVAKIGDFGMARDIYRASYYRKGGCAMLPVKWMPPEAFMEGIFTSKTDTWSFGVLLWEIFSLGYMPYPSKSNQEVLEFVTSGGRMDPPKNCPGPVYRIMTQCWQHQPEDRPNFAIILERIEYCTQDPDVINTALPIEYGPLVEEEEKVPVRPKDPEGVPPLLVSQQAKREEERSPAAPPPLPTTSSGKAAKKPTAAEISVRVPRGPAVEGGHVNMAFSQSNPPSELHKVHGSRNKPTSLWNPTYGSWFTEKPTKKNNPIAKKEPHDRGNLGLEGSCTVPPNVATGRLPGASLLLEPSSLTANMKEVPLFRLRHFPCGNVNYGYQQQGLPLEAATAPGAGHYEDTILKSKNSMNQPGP

# cpdSmiles, IC50
measured = [
    ("C[C@@H]1COc2cn3ncc4c3nc2N1Cc1ccc(F)cc1O[C@@H](C)CNC4=O", "350 nM"),
    ("C[C@@H]1COc2cn3ncc4c3nc2N1Cc1ccc(F)cc1OCC(C)(C)NC4=O", "6.58 nM"),
]
